Cited source: paper PMC7826789

We begin with a simple list: items and their reported Percent Control.
Tested on: RSK2(Kin.Dom.1-N-terminal)
Construct: gene RPS6KA3
Conditions: Compound Concentration (nM):1000;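 also: KINOMEscan scanMAX binding as percent activity remaining versus control; lower means stronger binding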
Field: numeric (%). Do not append units.

NS(=O)(=O)c1ccc(N/N=C2\C(=O)Nc3ccc(C(=O)NCCc4c[nH]cn4)cc32)cc1 [GW300660X] ... 54
CCn1c(-c2nonc2N)nc2c(C#CC(C)(C)O)nc(OCCNC)cc21.Cl ... 97
Cl.O=C(Nc1ccc(Oc2ccc3[nH]c(NC(=O)c4ccccc4)nc3c2)cc1)Nc1cc(C(F)(F)F)ccc1F [GW709042A] ... 100
COc1cc(C=NNc2ncnc3c2cnn3-c2ccccc2)ccc1O [GW513184X] ... 88
C/C(Nc1ccc(S(N)(=O)=O)cc1)=C1/C(=O)Nc2ccccc21 [GW335962X] ... 52

Dear colleague, I am looking for the recorded Percent Control of the following molecule: COc1cc(N2CCN(C(C)C)CC2)ccc1Nc1nc(Nc2ccc(F)cc2C(=O)NC[C@@H](O)CO)c2cc[nH]c2n1 [GSK1392956A]
5.7

// lookup Percent Control for Cl.c1ccc(Cc2nc3ccc(Nc4ncnc5ccccc45)cc3[nH]2)cc1 [GR269666A]
100

For the molecule shown here, COc1ccccc1-c1cc(/C=C2\C(=O)Nc3ncc(Br)cc32)cc(Br)c1O [GW442130X] , give the reported Percent Control.
100

Requested field: Percent Control. Item: `CCc1ccc(Oc2nccc(-c3c(-c4ccc(F)cc4)ncn3C3CCNCC3)n2)cc1`
97

Requested field: Percent Control. Item: COc1cccc(-n2ncc3c(N/N=C/c4ccncc4)ncnc32)c1 [GW784752X]
100

# query: Percent Control of entry Cl.O=C(Nc1ccc(Oc2ccc3[nH]c(NC(=O)c4ccco4)nc3c2)cc1)Nc1cc(C(F)(F)F)ccc1F [GW683134A]
100

Reported Percent Control for COC(=O)Nc1nc2ccc(Oc3ccc(NC(=O)Nc4cc(C(F)(F)F)ccc4F)cc3)cc2s1.Cl [GW693917A] : what is it?
98

For COc1ccc2c(-c3ccnc(Nc4cccc(OC(F)(F)F)c4)n3)cnn2n1 [GW810372X] , what is its reported Percent Control?
95

I am curious: what Percent Control value has been reported for Cl.O=C(O[C@H]1CN[C@H](C#Cc2cc3ncnc(Nc4ccc5c(cnn5Cc5ccccc5)c4)c3s2)C1)N1CCOCC1 [GSK200398A] ?
95

So what does the record say about Percent Control for CCS(=O)(=O)c1ccc(OC)c(Nc2ncc(-c3cccc(OC)c3)o2)c1 [GW580509X] ?
100

----------
System: IGF1R
Conditions: Compound Concentration (nM):1000
// reported Percent Control per item
Provide only the numeric value, understood in %.

Before answering, review these 3 worked examples.
CN(C)CCNC(=O)Nc1ccc(N(C)c2ccnc(Nc3ccc(CS(C)(=O)=O)cc3)n2)cc1.Cl [GW830900A] ... 100
NS(=O)(=O)c1ccc(Nc2ncc(-c3ccccc3)o2)cc1 [GW572399X] ... 100
CC1=C(C(=O)Nc2ccc3[nH]ncc3c2)C(c2ccc(Cl)c(Cl)c2)CC(=O)N1 (stereo not shown) [GSK299115A] ... 93

Would you mind telling me what Percent Control value was observed for C[C@@H](Oc1cc(-n2cnc3ccc(OC4CCN(C)CC4)cc32)sc1C(N)=O)c1ccccc1Cl [GSK579289A] ?
69

----------
Tested on: VEGFR2
Construct: gene KDR
Conditions: Compound Concentration (nM):1000
Use 60% as the dividing line for Percent Control, with the line itself on the true side and lower values as false.

Recorded results for 8 compounds are shown here.
CC1=C(C(=O)Nc2ccc3[nH]ncc3c2)C(c2ccc3ccccc3c2)CC(=O)N1 (stereo not drawn) [GSK270822A] ... true
C[C@@H](Oc1cc(-n2cnc3ccc(OC4CCN(C)CC4)cc32)sc1C(N)=O)c1ccccc1Cl [GSK579289A] ... true
CCS(=O)(=O)c1ccc(OC)c(Nc2ncc(-c3cccc(F)c3)o2)c1 [GW621970X] ... false
COc1cc2ncn(-c3cc(O[C@H](C)c4ccccc4Cl)c(C(N)=O)s3)c2cc1OC [GSK237701A] ... false
CCc1ccc(Oc2nccc(-c3c(-c4ccc(F)cc4)ncn3C3CCNCC3)n2)cc1 [SB-242719] ... true
CC1=C(C(=O)Nc2ccc3[nH]ncc3c2)C(c2ccc(Cl)c(Cl)c2)CC(=O)N1 (stereo not drawn) [GSK299115A] ... true
COc1ccc(COc2ccc(Cc3cnc(N)nc3N)cc2OC)cc1 [GW632580X] ... true
NS(=O)(=O)c1ccc(N/N=C2\C(=O)Nc3ccc(C(=O)NCCc4c[nH]cn4)cc32)cc1 [GW300660X] ... true

Does the reported Percent Control for COc1cc(C=NNc2ncnc3c2cnn3-c2ccccc2)ccc1O [GW513184X] fall at or above the 60% mark?
true

Has COc1cc(N2CCN(C(C)C)CC2)ccc1Nc1nc(Nc2ccc(F)cc2C(=O)NC[C@@H](O)CO)c2cc[nH]c2n1 [GSK1392956A] a recorded Percent Control greater than or equal to 60%?
true

Kindly determine if Percent Control recorded for CN(C)CCNC(=O)Nc1ccc(N(C)c2ccnc(Nc3ccc(CS(C)(=O)=O)cc3)n2)cc1.Cl [GW830900A] is above or exactly 60%.
false

Reported Percent Control reaches at least 60% for COc1ccc2c(-c3ccnc(Nc4cccc(OC(F)(F)F)c4)n3)cnn2n1 [GW810372X] ?
true

Entry COc1cc(C)c(N(C)C(=O)CN(C)C)cc1Nc1nc(Nc2cccc(F)c2C(N)=O)c2cc[nH]c2n1 [GSK2219385] : is its Percent Control no less than 60%?
true

In plain terms: is recorded Percent Control at least 60% for COC(=O)Nc1nc2ccc(Oc3ccc(NC(=O)Nc4cc(C(F)(F)F)ccc4F)cc3)cc2s1.Cl [GW693917A] ?
false

----------
Test system: TEC
Conditions: Compound Concentration (nM):1000
Test Readout: Percent Control (%)
Numeric answer only, unit % assumed.

Below are worked cases with known answers.
COc1cccc(-n2ncc3c(N/N=C/c4ccncc4)ncnc32)c1 [GW784752X] ... 100
Cl.O=C(Nc1ccc(Oc2ccc3[nH]c(NC(=O)c4ccccc4)nc3c2)cc1)Nc1cc(C(F)(F)F)ccc1F [GW709042A] ... 100

Read the next record carefully.
Requested read-out: Percent Control. Entry: COc1cc(/C=N/Nc2ncnc3[nH]ncc23)ccc1O [GW578748X]
100

----------
Listed below: Percent Control values for each entry.
Test system: MYLK4
Details: Compound Concentration (nM):1000
Answer in %, number only, no unit symbol.

CCc1ccc(Oc2nccc(-c3c(-c4ccc(F)cc4)ncn3C3CCNCC3)n2)cc1 [SB-242719] ... 98

# input molecule: NS(=O)(=O)c1ccc(N/N=C2\C(=O)Nc3ccc(C(=O)NCc4ccncc4)cc32)cc1 [GW300657X] ; wanted: its Percent Control
83

Quick one: Percent Control for COc1cc2ncn(-c3cc(O[C@H](C)c4ccccc4Cl)c(C(N)=O)s3)c2cc1OC [GSK237701A] ?
45

I have this molecule here, NS(=O)(=O)c1ccc(N/N=C2\C(=O)Nc3ccc(C(=O)NCCc4c[nH]cn4)cc32)cc1 [GW300660X] , and I need its recorded Percent Control.
87

What measured Percent Control goes with CCS(=O)(=O)c1ccc(OC)c(Nc2ncc(-c3cccc(F)c3)o2)c1 [GW621970X] ?
100

Dear colleague, I am looking for the recorded Percent Control of the following molecule: COc1ccc2cc(-c3c(-c4ccncc4)nc(-c4ccc(S(C)(=O)=O)cc4C)n3C)ccc2c1 [SB-633825]
93

Which Percent Control reading was recorded for the molecule Cl.O=C(Nc1ccc(Oc2ccc3[nH]c(NC(=O)c4ccccc4)nc3c2)cc1)Nc1cc(C(F)(F)F)ccc1F [GW709042A] ?
100

Tell me the measured Percent Control of COc1cccc(-n2ncc3c(N/N=C/c4ccncc4)ncnc32)c1 [GW784752X] , please.
100

----------
Test system: LATS2
Conditions: Compound Concentration (nM):1000
List of Percent Control values.
Field: numeric (%). Do not append units.

CCn1c(-c2nonc2N)nc2c(C#CC(C)(C)O)nc(OCCNC)cc21.Cl [GSK949675] ... 11
CN1CCN(C(=O)c2ccc(NC(=O)Nc3ccc(N(C)c4ccnc(Nc5ccc(CS(C)(=O)=O)cc5)n4)cc3)cc2)CC1.Cl [GW830263A] ... 59
Cl.O=C(Nc1ccc(Oc2ccc3[nH]c(NC(=O)c4ccco4)nc3c2)cc1)Nc1cc(C(F)(F)F)ccc1F [GW683134A] ... 97

Entry COc1cc(C=NNc2ncnc3c2cnn3-c2ccccc2)ccc1O [GW513184X] : reported Percent Control = ?
100

Please report the recorded Percent Control for CCS(=O)(=O)c1ccc(OC)c(Nc2ncc(-c3cccc(OC)c3)o2)c1 [GW580509X] .
100

Consider the compound shown here: CC1=C(C(=O)Nc2ccc3[nH]ncc3c2)C(c2ccc(Cl)c(Cl)c2)CC(=O)N1 (centres unmarked) [GSK299115A] What is its recorded Percent Control?
1.5

Quick one: Percent Control of CC(C)COC(=O)c1ccc2c(c1)/C(=C/Nc1ccc(S(N)(=O)=O)cc1)C(=O)N2 [GW416981X] ?
91

# lookup: Percent Control of COc1cc(N2CCN(C(C)C)CC2)ccc1Nc1nc(Nc2ccc(F)cc2C(=O)NC[C@@H](O)CO)c2cc[nH]c2n1 [GSK1392956A]
95

Returns the measured Percent Control for the input compound. Input: COc1cc(C)c(N(C)C(=O)CN(C)C)cc1Nc1nc(Nc2cccc(F)c2C(N)=O)c2cc[nH]c2n1 [GSK2219385]
80

Dear colleague, I am looking for the recorded Percent Control of the following compound: NS(=O)(=O)c1ccc(N/N=C2\C(=O)Nc3ccc(Cl)cc32)cc1 [GW280670X]
98

I would be grateful if you could share the reported Percent Control for COC(=O)Nc1nc2ccc(Oc3ccc(NC(=O)Nc4cc(C(F)(F)F)ccc4F)cc3)cc2s1.Cl [GW693917A] .
80

Entry NS(=O)(=O)c1ccc(Nc2ncc(-c3ccccc3)o2)cc1 [GW572399X] has what Percent Control?
100

So what's the measured Percent Control for this one? CC1=C(C(=O)Nc2ccc3[nH]ncc3c2)C(c2ccc3ccccc3c2)CC(=O)N1 (centres unmarked) [GSK270822A]
7

So what does the record say about Percent Control for NS(=O)(=O)c1ccc(N/N=C2\C(=O)Nc3ccc(-c4cnco4)cc32)cc1 [GW276655] ?
65

Which Percent Control value is on record for COc1ccc2[nH]c3c4[nH]c5ccc(OC)cc5c4c4c(c3c2c1)C(=O)NC4=O [GW296115X] ?
43

Would you mind telling me what Percent Control value was observed for CN(C)c1cc2c(Nc3ccc4c(cnn4Cc4ccccc4)c3)ncnc2cn1 [GW282974X] ?
65

Please look up its Percent Control: COc1cccc(-n2ncc3c(N/N=C/c4ccncc4)ncnc32)c1 [GW784752X]
100
